Test: Clearance in Wistar rat at 3 mg/kg,iv or 3 mg/kg, po
Assay type: ADME, organism-based
Conditions: in vivo
Property: clearance (L/h/kg)
Value expressed in L/h/kg; do not type the unit.

(Q) Item `Cc1ncn(CC(=O)N2CCN(c3sc(C(F)(F)F)nc3-c3cnc(C(F)(F)F)nc3)C[C@H]2CCO)n1` has what recorded clearance?
(A) 0.57

---

Assay: Cmin in LPS-induced DBA/1 mouse plasma at 0.02 microg/g, po bid preincubated for 3 days followed by LPS stimulation for 30 mins and measured after 72 hrs by flow cytometry
Assay type: ADME, organism-based
Details: dose 0.02 µg/g, time 3 day, read-out: Cmin
Property: concentration at 72 h (ng/mL)
Value expressed in ng/mL; do not type the unit.

(Q) Item `Cc1ncn(CC(=O)N2CCN(c3sc(C(F)(F)F)nc3-c3cnc(C(F)(F)F)nc3)C[C@H]2CCO)n1` has what recorded concentration at 72 h?
(A) 99

---

Biological target: CYP2D6 (Homo sapiens)
Sequence (P10635 whole entry): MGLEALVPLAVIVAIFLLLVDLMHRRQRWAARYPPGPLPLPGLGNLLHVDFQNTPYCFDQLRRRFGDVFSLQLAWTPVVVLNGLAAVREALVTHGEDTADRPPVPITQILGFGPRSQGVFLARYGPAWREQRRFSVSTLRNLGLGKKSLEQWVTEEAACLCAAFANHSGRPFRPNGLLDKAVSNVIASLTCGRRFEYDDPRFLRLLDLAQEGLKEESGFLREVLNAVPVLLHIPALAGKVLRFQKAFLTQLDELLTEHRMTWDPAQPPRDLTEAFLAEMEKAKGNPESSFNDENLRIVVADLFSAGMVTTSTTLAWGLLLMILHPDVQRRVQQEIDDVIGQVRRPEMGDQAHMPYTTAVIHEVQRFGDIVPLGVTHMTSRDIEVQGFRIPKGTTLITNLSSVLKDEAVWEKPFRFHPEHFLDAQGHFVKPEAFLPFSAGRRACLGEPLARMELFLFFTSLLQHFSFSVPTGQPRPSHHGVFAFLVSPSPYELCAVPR
Experiment: […] recombinant human CYP2D6 mediated drug metabolism in human liver microsomes assessed as intrinsic clearance at 1 uM incubated for 45 mins in presence of NADPH regenerating system by LC-MS/MS analysis
Assay type: ADME, Microsome
Conditions: recombinant human CYP2D6, read-out: CLH
Measured microsomal CLint at 1 µM, listed per entry for reference.
Value expressed in µL/min/mg; do not type the unit.

Chemical smiles | Assay target | Property | Measured value
Cc1ccn(CC(=O)N2CCN(c3sc(C(F)(F)F)nc3-c3cnc(C(F)(F)F)nc3)C[C@@H]2CO)n1 | CYP2D6 (Homo sapiens) | microsomal CLint at 1 µM | 0.41

(Q) Item `CC(C)c1ncn(CC(=O)N2CCN(c3sc(C(F)(F)F)nc3-c3cnc(C(F)(F)F)nc3)C[C@@H]2CCO)n1` has what recorded microsomal CLint at 1 µM?
(A) 0.28

(Q) Please give the result for `CC(C)c1ncn(CC(=O)N2CCN(c3sc(C(F)(F)F)nc3-c3cnc(C(F)(F)F)nc3)C[C@H]2CO)n1` too.
(A) 0.13

(Q) Please give the result for `Cc1ccn(CC(=O)N2CCN(c3sc(C(F)(F)F)nc3-c3cnc(C(F)(F)F)nc3)C[C@H]2CO)n1` too.
(A) 0.41

(Q) Please give the result for `Cc1ccn(CC(=O)N2CCN(c3sc(C(F)(F)F)nc3-c3cnc(C(F)(F)F)nc3)C[C@@H]2CCO)n1` too.
(A) 0.37

(Q) Please give the result for `CCc1ncn(CC(=O)N2CCN(c3sc(C(F)(F)F)nc3-c3cnc(C(F)(F)F)nc3)C[C@@H]2CO)n1` too.
(A) 0.13

---

Biological target: UniProtKB O88410
Sequence (O88410 whole entry): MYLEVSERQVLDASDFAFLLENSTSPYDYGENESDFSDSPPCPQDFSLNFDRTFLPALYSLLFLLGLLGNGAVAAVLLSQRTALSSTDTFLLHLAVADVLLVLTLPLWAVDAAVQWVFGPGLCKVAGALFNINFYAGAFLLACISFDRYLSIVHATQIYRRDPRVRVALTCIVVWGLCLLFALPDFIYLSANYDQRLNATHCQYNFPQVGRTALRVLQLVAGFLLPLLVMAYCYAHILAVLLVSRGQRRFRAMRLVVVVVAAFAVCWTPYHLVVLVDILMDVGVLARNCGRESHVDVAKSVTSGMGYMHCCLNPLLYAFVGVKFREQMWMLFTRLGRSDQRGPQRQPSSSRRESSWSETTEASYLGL
Assay: Antagonist activity at mouse CXCR3 expressed in CHO-K1 cells assessed as reduction in CXCL11 induced calcium flux by FLIPR method
Format: cell-based
Property: pIC50
pIC50 here: minus log base 10 of the concentration, concentration in moles per litre.

(Q) Item `Cc1ncn(CC(=O)N2CCN(c3sc(C(F)(F)F)nc3-c3cnc(C(F)(F)F)nc3)C[C@H]2CCO)n1` has what recorded pIC50?
(A) 8.36

---

Target: Voltage-gated inwardly rectifying potassium channel KCNH2 (Homo sapiens, UniProt Q12809)
Sequence (Q12809 whole entry): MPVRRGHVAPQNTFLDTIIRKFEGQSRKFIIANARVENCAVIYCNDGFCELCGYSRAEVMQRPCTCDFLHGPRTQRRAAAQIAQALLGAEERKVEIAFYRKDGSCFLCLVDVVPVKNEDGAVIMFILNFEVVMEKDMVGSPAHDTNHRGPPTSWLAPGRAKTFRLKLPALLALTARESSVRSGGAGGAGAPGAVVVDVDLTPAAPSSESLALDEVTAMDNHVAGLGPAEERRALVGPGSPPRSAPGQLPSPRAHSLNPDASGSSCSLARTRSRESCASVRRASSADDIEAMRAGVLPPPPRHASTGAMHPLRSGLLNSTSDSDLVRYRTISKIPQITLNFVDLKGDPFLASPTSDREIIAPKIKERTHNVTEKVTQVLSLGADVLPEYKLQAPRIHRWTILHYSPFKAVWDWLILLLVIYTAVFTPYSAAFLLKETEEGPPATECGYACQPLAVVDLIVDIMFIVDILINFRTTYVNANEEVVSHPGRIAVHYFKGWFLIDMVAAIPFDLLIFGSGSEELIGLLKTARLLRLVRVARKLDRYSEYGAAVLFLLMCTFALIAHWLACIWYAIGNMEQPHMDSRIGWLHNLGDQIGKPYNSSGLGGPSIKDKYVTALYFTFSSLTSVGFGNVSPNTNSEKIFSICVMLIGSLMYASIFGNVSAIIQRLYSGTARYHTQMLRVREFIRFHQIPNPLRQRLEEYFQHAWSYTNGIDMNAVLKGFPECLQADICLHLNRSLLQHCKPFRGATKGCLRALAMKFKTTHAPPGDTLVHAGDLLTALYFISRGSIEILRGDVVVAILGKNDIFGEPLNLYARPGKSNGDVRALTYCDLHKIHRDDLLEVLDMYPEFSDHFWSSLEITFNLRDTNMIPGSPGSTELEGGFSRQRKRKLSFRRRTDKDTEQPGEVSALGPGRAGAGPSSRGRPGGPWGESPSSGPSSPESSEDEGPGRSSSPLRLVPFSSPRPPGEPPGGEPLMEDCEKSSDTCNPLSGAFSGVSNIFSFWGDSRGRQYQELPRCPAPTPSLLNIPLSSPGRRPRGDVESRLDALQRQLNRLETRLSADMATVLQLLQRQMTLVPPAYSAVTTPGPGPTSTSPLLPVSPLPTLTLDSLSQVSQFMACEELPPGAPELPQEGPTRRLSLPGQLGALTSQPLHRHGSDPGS
Assay: Inhibition of human ERG stably expressed in CHO cells at -80 mV holding voltage by automated QPatch electrophysiological assay
Assay type: toxicity, cell-based
Property: pIC50
pIC50 here: minus log base 10 of the concentration, concentration in moles per litre.

Reference set (3 entries):
Chemical smiles | Property | Measured value
CC(C)c1ncn(CC(=O)N2CCN(c3sc(C(F)(F)F)nc3-c3cnc(C(F)(F)F)nc3)C[C@H]2CCO)n1 | pIC50 | 5.24
CC(C)c1ncn(CC(=O)N2CCN(c3sc(C(F)(F)F)nc3-c3cnc(C(F)(F)F)nc3)C[C@@H]2CCO)n1 | pIC50 | 4.72
Cc1ccn(CC(=O)N2CCN(c3sc(C(F)(F)F)nc3-c3cnc(C(F)(F)F)nc3)C[C@H]2CO)n1 | pIC50 | 4.89

(Q) Item `CCc1ccn(CC(=O)N2CCN(c3sc(C(F)(F)F)nc3-c3cnc(C(F)(F)F)nc3)C[C@H]2CCO)n1` has what recorded pIC50?
(A) 5.54

(Q) Please give the result for `C[C@@H]1CN(c2sc(C(F)(F)F)nc2-c2cnc(C(F)(F)F)nc2)CCN1C(=O)Cn1cnc(C#N)n1` too.
(A) 5.59

(Q) Please give the result for `CCc1ncn(CC(=O)N2CCN(c3sc(C(F)(F)F)nc3-c3cnc(C(F)(F)F)nc3)C[C@H]2CCO)n1` too.
(A) 5.01

(Q) Please give the result for `CCc1ncn(CC(=O)N2CCN(c3sc(C(F)(F)F)nc3-c3cnc(C(F)(F)F)nc3)C[C@H]2CO)n1` too.
(A) 4.28

(Q) Please give the result for `O=C(Cn1cnc(C2CC2)n1)N1CCN(c2sc(C(F)(F)F)nc2-c2cnc(C(F)(F)F)nc2)C[C@H]1CO` too.
(A) 4.51

(Q) Please give the result for `CCc1nc(C)nn1CC(=O)N1CCN(c2sc(C(F)(F)F)nc2-c2cnc(C(F)(F)F)nc2)C[C@H]1C` too.
(A) 4.92
